Listing: normalized growth of selected compounds
Experiment: chemical genetic growth profiling, strain panel (AID 1159580);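 note: tested at 20 µM; growth read once vehicle control cultures reached saturation at 30 °C; 1 = growth at the plate median or of vehicle wells; lower values mean less growth of the strain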
Settings: S. cerevisiae deletion strains, growth OD, locus YDL185W, strain tfp1, active compounds read low
In all, about 5,500 compounds went through this assay and about 2,000 (36%) were called active. About 18% were inconclusive and are not listed. This is one part of the list.
Respond with the number and no other words.

Answered cases to consult:
NC(=O)CC[C@@H](N)C(=O)O = 1.01
CC1=NCCc2c1[nH]c1cc(O)ccc21 = 0.993
CC(=O)Nc1ccc(OC(=O)c2ccccc2O)cc1 = 0.954

Data request: Output normalized growth of Cc1cc(=O)c2c(O)c3c(cc2o1)OCC(C)CC3 (stereo unspecified)
Data returned: 0.915

Data request: Output normalized growth of CCCN1C[C@H](CSC)C[C@@H]2c3cccc4[nH]cc(c34)C[C@H]21
Data returned: 1.02

Data request: Output normalized growth of COc1ccc(-c2coc3cc(OC)cc(O)c3c2=O)cc1
Data returned: 0.968
